// data source = paper PMC5750217

tgt: GltPh-R397C (Pyrococcus horikoshii, UniProt O59010, R397C)
Construct: hexa-His (N, cleaved yes); made in house; host or cells: Escherichia coli Top10 (pBAD)
Sequence (O59010 whole entry R397C): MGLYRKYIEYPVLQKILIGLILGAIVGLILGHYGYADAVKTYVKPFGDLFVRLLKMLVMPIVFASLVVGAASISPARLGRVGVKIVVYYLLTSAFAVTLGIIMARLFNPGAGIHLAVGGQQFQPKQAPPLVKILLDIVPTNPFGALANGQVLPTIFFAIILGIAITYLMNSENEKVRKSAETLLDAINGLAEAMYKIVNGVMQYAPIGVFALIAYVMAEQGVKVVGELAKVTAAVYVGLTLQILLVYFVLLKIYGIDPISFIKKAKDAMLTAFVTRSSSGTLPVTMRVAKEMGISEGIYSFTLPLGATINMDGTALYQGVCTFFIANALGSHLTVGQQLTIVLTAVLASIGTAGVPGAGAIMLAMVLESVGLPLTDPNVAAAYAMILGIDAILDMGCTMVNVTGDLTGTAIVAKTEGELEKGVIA
assay_info: biochemical
Type: binding
Procedure: Fluorescence-based binding assays were performed by titrating purified protein (50 μg per ml) in 20 mM HEPES/Tris, pH 7.4, 200 mM choline chloride, 0.4 mM n-dodecyl^−β-D-maltopyranoside, 200 nM styryl fluorescent dye RH421 (Invitrogen, Inc., Grand Island, NY) with NaCl, L-ser, L-cys or benzylcysteine at 25 °C[51]. The RH421 dye was excited at 532 nm, and the fluorescence was collected at 628 nm using a QuantaMaster (Photon International Technology, Inc., Edison, NJ). […]
Answer each item with its documented Kd.
Write down the numeric answer in µM and omit the unit.

So what Kd did N[C@@H](CO)C(=O)O get with GltPh-R397C (Pyrococcus horikoshii, UniProt O59010, R397C)?
9

Recorded Kd for N[C@@H](CSCc1ccccc1)C(=O)O with GltPh-R397C (Pyrococcus horikoshii, UniProt O59010, R397C), please?
1000

For the record N[C@@H](CS)C(=O)O , what value of Kd is listed for GltPh-R397C (Pyrococcus horikoshii, UniProt O59010, R397C)?
31

Param readout= Kd; system= GltPh-R397C (Pyrococcus horikoshii, UniProt O59010, R397C); entry= NC(=O)CC[C@H](N)C(=O)O ; returns value.
1800

* * *

tgt: A1-T458S (mutant ASCT1) (Homo sapiens, UniProt P43007, T458S)
assay_info: Two electrode voltage clamp, substrate-activated anion current in oocytes expressing A1-T458S
recorded_conditions: NO3−-containing buffer, current at +60 mV, dash = substrate did not generate currents
reported_property: pEC50
Quick note: pEC50 means taking -log10 of the concentration in moles per liter.

Record request: pEC50 value, item N[C@@H](CO)C(=O)O
3.97

* * *

tgt: GltPh-R397C (Pyrococcus horikoshii, UniProt O59010, R397C)
Construct: hexa-His (N, cleaved yes); made in house; host or cells: Escherichia coli Top10 (pBAD)
assay_info: biochemical
Format: binding
recorded_conditions: GltPh-R397C; global fit of isotherms at 10–100 mM Na+, 25 °C
reported_property: Apparent number of Na+ ions coupled to binding (n)
Keep it simple and answer with nothing but the number.

Apparent number of Na+ ions coupled to binding (n) for NC(=O)CC[C@H](N)C(=O)O ?
1.1

Name the recorded Apparent number of Na+ ions coupled to binding (n) for N[C@@H](CS)C(=O)O .
1.5

Which value of Apparent number of Na+ ions coupled to binding (n) has been reported for N[C@@H](CSCc1ccccc1)C(=O)O in the records?
0.8

// Apparent number of Na+ ions coupled to binding (n) lookup, key: N[C@@H](CO)C(=O)O
1.7

* * *

tgt: A1-T459C (mutant ASCT1) (Homo sapiens, UniProt P43007, T459C)
Sequence (P43007 1-532 T459C): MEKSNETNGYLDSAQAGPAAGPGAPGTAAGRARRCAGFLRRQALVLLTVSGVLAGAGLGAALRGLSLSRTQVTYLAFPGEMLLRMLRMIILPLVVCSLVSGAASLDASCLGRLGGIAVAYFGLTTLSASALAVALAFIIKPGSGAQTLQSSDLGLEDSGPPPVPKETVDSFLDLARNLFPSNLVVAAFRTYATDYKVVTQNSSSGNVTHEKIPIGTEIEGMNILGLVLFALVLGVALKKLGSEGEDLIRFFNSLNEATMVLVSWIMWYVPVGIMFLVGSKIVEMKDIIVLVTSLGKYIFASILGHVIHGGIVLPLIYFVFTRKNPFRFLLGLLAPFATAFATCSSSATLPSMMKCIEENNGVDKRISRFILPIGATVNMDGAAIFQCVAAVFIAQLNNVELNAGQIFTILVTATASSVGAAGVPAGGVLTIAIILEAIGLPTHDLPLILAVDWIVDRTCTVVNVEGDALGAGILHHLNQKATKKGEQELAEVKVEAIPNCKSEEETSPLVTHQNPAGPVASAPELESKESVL
assay_info: Two electrode voltage clamp, substrate-activated anion current in oocytes expressing A1-T459C
recorded_conditions: A1-T459C in oocytes, NO3−-containing buffer, current at +60 mV
reported_property: EC50 (µM)
Numeric answer only, unit µM assumed.

I am curious: what EC50 value has been reported for N[C@@H](CO)C(=O)O [L-serine] ?
83

// EC50 lookup, key: NC(=O)CC[C@H](N)C(=O)O [L-glutamine]
260

* * *

tgt: GltPh-G396S/R397C (Pyrococcus horikoshii, UniProt O59010, G396S/R397C)
Construct: hexa-His (N, cleaved yes); made in house; host or cells: Escherichia coli Top10 (pBAD)
Sequence (O59010 whole entry G396S/R397C): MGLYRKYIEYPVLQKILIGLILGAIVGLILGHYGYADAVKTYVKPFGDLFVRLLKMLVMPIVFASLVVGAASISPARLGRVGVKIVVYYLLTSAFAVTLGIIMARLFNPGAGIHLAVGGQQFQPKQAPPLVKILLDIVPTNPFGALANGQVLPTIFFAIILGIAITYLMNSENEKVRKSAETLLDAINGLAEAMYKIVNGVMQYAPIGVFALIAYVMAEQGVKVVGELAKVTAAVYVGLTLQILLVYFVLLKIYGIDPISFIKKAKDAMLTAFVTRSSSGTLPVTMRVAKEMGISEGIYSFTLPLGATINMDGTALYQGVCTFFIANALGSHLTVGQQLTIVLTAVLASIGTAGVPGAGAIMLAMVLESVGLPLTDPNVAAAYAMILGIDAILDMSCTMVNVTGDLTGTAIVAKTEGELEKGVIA
assay_info: biochemical
Assay type: biochemical
recorded_conditions: GltPh-G396S/R397C; 1 µM L-[3H]serine; read-out: IC50 for inhibition of L-[3H]serine transport
Exercise: for every item that follows, state its recorded IC50.
Number in µM, nothing else.

Entry under review: N[C@@H](COCc1ccccc1)C(=O)O . Reported IC50?
120

Fill blank: measured IC50 of the molecule N[C@H](C(=O)O)[C@H](OCc1ccccc1)C(=O)O is ____.
500

* * *

So I've got a bunch of compounds here, and I need their EC50 values.
tgt: A1-T458S/T459C (mutant ASCT1) (Homo sapiens, UniProt P43007, T458S/T459C)
assay_info: Two electrode voltage clamp, substrate-activated anion current in oocytes expressing A1-T458S/T459C
recorded_conditions: A1-T458S/T459C in oocytes, NO3−-containing buffer, current at +60 mV
Write it as a number; the unit µM goes unstated.

For the compound shown here, N[C@@H](CO)C(=O)O [L-serine] , give the reported EC50.
45

Entry NC(=O)CC[C@H](N)C(=O)O [L-glutamine] has what EC50?
90

* * *

tgt: GltPh-R397C (Pyrococcus horikoshii, UniProt O59010, R397C)
Construct: hexa-His (N, cleaved yes)
assay_info: biochemical
recorded_conditions: GltPh-R397C; 1 µM L-[3H]serine; read-out: IC50 for inhibition of L-[3H]serine transport
reported_property: pIC50
pIC50 field: float, defined as -log10 of concentration (mol/L).

Which pIC50 reading was recorded for the compound N[C@@H](COCc1ccccc1)C(=O)O [benzylserine] ?
3.96

* * *

tgt: wild-type GltPh (Pyrococcus horikoshii, UniProt O59010)
Sequence (O59010 whole entry): as the sequence (O59010 whole entry R397C) above, with C397R counted along it
reported_property: pIC50
Here pIC50 is given on a logarithmic scale as minus log10 of the concentration in mol/L.

API: value(readout= pIC50, system= wild-type GltPh (Pyrococcus horikoshii, UniProt O59010), query= N[C@H](C(=O)O)[C@H](OCc1ccccc1)C(=O)O [TBOA, L-threo-β-oxybenzylaspartic acid] )
5.70

* * *

tgt: GltPh-G396S/R397C (Pyrococcus horikoshii, UniProt O59010, G396S/R397C)
Construct: hexa-His (N, cleaved yes); made in house; host or cells: Escherichia coli Top10 (pBAD)
assay_info: biochemical
Assay type: biochemical
reported_property: IC50 (µM)
Express it in µM; write the number only.

Tell me the measured IC50 of N[C@@H](CSCc1ccccc1)C(=O)O , please.
280

* * *

tgt: ASCT1 (Homo sapiens)
assay_info: Two electrode voltage clamp, substrate-activated anion current in oocytes expressing ASCT1
recorded_conditions: ASCT1 in oocytes, NO3−-containing buffer, current at +60 mV; dash = substrate did not generate currents
reported_property: EC50 (µM)
Write the number in µM without appending the unit.

So what's the measured EC50 for this one? N[C@@H](CO)C(=O)O
100

* * *

tgt: A2-S481T/C482T (mutant ASCT2) (Homo sapiens, UniProt Q15758, C467T/S466T)
Sequence (Q15758 whole entry S466T/C467T): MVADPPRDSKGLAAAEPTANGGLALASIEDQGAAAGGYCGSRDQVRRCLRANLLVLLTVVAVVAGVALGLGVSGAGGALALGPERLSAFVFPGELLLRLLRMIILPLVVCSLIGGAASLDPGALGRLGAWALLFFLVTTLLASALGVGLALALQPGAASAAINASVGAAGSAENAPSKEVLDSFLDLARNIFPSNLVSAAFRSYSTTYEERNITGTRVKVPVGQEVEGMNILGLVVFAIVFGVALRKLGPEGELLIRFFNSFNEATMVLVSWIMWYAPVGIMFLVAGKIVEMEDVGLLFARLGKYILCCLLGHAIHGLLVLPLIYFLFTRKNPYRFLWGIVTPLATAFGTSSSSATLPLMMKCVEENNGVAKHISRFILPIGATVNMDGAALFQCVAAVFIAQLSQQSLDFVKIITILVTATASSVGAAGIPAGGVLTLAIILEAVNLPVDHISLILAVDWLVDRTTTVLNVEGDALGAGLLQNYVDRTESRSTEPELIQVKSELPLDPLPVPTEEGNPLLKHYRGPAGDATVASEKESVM
assay_info: Two electrode voltage clamp, substrate-activated anion current in oocytes expressing A2-S481T/C482T
recorded_conditions: A2-S481T/C482T in oocytes, NO3−-containing buffer, current at +60 mV; dash = substrate did not generate currents
Procedure: All chemicals were obtained from Sigma unless otherwise stated. Stage V oocytes were harvested from female Xenopus laevis (frogs) which were obtained from Nasco (Fort Alkinson, USA). Frogs were anaesthetised with 6.5 mM tricaine neutralised with 7.14 mM sodium bicarbonate. After making an incision in the abdomen of the frog, ovarian sacs were removed and stored in OR-2 buffer (82.5 mM NaCl, 2 mM KCl, 1 mM MgCl2, 5 mM hemisodium HEPES, pH 7.5). […]
reported_property: pEC50
Field pEC50 (float): negative decimal logarithm of the concentration in molar.

Field request: pEC50 | item: N[C@@H](CO)C(=O)O [L-serine]
4.21
